# Relative IC50 (fold of chimeric PTA-2358) values compiled below
target: antigen on NCI-H187 classic small cell lung carcinoma cells (ATCC Number: CRL-5804) recognised by PTA-2358; assay: competition flow cytometry on NCI-H187 cells against mouse PTA-2358; CHO-K1-derived

Look over these answered cases.
>  <BINDER>
PTA-2358 VH5/VK1 IgG1 antibody (antibody, V domains shown) VH: EVQLVQSGAEVKKPGASVKVSCTASGFNIKDYYMHWVRQAPGQGLEWIGWIDPGNGDTECAPKFQGRATITADTSISTAYMELSRLRSDDTAVYYCNAPYYSGSSHFDYWGQGTTVTVSS VL: DIVLTQSPDSLAVSLGERATINCRASKSVSASGYSFLHWYQQKPGQPPKLLIYLASNLESGVPDRFSGSGSGTDFTLTISSLQEEDVATYYCQHSRELRTFGQGTKLEIK

>  <OBSERVED VALUE>
1.69

$$$$
>  <BINDER>
PTA-2358 VH3/VK3 IgG1 antibody (antibody, V domains shown) VH: EVQLVQSGAEVKKPGASVKLSCTASGFNIKDYYMHWVRQAPGQGLEWIGWIDPGNGDTECAPKFQGRATLTADTSINTAYLELSRLRSDDTAVYYCNAPYYSGSSHFDYWGQGTTVTVSS VL: DIVMTQSPDSLAVSLGERATINCRASKSVSASGYSFLHWYQQKPGQPPKLLIYLASNLESGVPDRFSGSGSGTDFTLTISSLQAEDVAVYYCQHSRELRTFGQGTKLEIK

>  <OBSERVED VALUE>
2.43

$$$$
>  <BINDER>
PTA-2358 VH4/VK3 IgG1 antibody (antibody, V domains shown) VH: EVQLVQSGAEVKKPGASVKLSCTASGFNIKDYYMHWVRQAPGQGLEWIGWIDPGNGDTECAPKFQGRATLTADTSISTAYLELSRLRSDDTAVYYCNAPYYSGSSHFDYWGQGTTVTVSS VL: DIVMTQSPDSLAVSLGERATINCRASKSVSASGYSFLHWYQQKPGQPPKLLIYLASNLESGVPDRFSGSGSGTDFTLTISSLQAEDVAVYYCQHSRELRTFGQGTKLEIK

>  <OBSERVED VALUE>
> 3

$$$$
>  <BINDER>
PTA-2358 VH2/VK1 IgG1 antibody (antibody, V domains shown) VH: EVQLVQSGAEVKKPGASVKLSCTASGFNIKDYYMHWVKQAPGQGLEWIGWIDPGNGDTECAPKFQGRATLTADTSINTAYLELSRLRSDDTAVYYCNAPYYSGSSHFDYWGQGTTVTVSS VL: DIVLTQSPDSLAVSLGERATINCRASKSVSASGYSFLHWYQQKPGQPPKLLIYLASNLESGVPDRFSGSGSGTDFTLTISSLQEEDVATYYCQHSRELRTFGQGTKLEIK

>  <OBSERVED VALUE>
1.28

$$$$
>  <BINDER>
PTA-2358 VH3/VK1 IgG1 antibody (antibody, V domains shown) VH: EVQLVQSGAEVKKPGASVKLSCTASGFNIKDYYMHWVRQAPGQGLEWIGWIDPGNGDTECAPKFQGRATLTADTSINTAYLELSRLRSDDTAVYYCNAPYYSGSSHFDYWGQGTTVTVSS VL: DIVLTQSPDSLAVSLGERATINCRASKSVSASGYSFLHWYQQKPGQPPKLLIYLASNLESGVPDRFSGSGSGTDFTLTISSLQEEDVATYYCQHSRELRTFGQGTKLEIK

>  <OBSERVED VALUE>
1.09

$$$$
>  <BINDER>
PTA-2358 VH5/VK3 IgG1 antibody (antibody, V domains shown) VH: EVQLVQSGAEVKKPGASVKVSCTASGFNIKDYYMHWVRQAPGQGLEWIGWIDPGNGDTECAPKFQGRATITADTSISTAYMELSRLRSDDTAVYYCNAPYYSGSSHFDYWGQGTTVTVSS VL: DIVMTQSPDSLAVSLGERATINCRASKSVSASGYSFLHWYQQKPGQPPKLLIYLASNLESGVPDRFSGSGSGTDFTLTISSLQAEDVAVYYCQHSRELRTFGQGTKLEIK

>  <OBSERVED VALUE>
> 3

$$$$
>  <BINDER>
PTA-2358 VH1/VK3 IgG1 antibody (antibody, V domains shown) VH: EVQLVQSGAELKKPGASVKLSCTASGFNIKDYYMHWVKQAPGQGLEWIGWIDPGNGDTECAPKFQGRATLTADTSINTAYLELSRLRSDDTAVYYCNAPYYSGSSHFDYWGQGTTVTVSS VL: DIVMTQSPDSLAVSLGERATINCRASKSVSASGYSFLHWYQQKPGQPPKLLIYLASNLESGVPDRFSGSGSGTDFTLTISSLQAEDVAVYYCQHSRELRTFGQGTKLEIK

>  <OBSERVED VALUE>
2.68

$$$$
>  <BINDER>
PTA-2358 VH4/VK1 IgG1 antibody (antibody, V domains shown) VH: EVQLVQSGAEVKKPGASVKLSCTASGFNIKDYYMHWVRQAPGQGLEWIGWIDPGNGDTECAPKFQGRATLTADTSISTAYLELSRLRSDDTAVYYCNAPYYSGSSHFDYWGQGTTVTVSS VL: DIVLTQSPDSLAVSLGERATINCRASKSVSASGYSFLHWYQQKPGQPPKLLIYLASNLESGVPDRFSGSGSGTDFTLTISSLQEEDVATYYCQHSRELRTFGQGTKLEIK

>  <OBSERVED VALUE>
1.48

$$$$
>  <BINDER>
PTA-2358 VH4/VK2 IgG1 antibody (antibody, V domains shown) VH: EVQLVQSGAEVKKPGASVKLSCTASGFNIKDYYMHWVRQAPGQGLEWIGWIDPGNGDTECAPKFQGRATLTADTSISTAYLELSRLRSDDTAVYYCNAPYYSGSSHFDYWGQGTTVTVSS VL: DIVLTQSPDSLAVSLGERATINCRASKSVSASGYSFLHWYQQKPGQPPKLLIYLASNLESGVPDRFSGSGSGTDFTLTISSLQAEDVATYYCQHSRELRTFGQGTKLEIK

>  <OBSERVED VALUE>
1.68

$$$$
>  <BINDER>
PTA-2358 VH3/VK2 IgG1 antibody (antibody, V domains shown) VH: EVQLVQSGAEVKKPGASVKLSCTASGFNIKDYYMHWVRQAPGQGLEWIGWIDPGNGDTECAPKFQGRATLTADTSINTAYLELSRLRSDDTAVYYCNAPYYSGSSHFDYWGQGTTVTVSS VL: DIVLTQSPDSLAVSLGERATINCRASKSVSASGYSFLHWYQQKPGQPPKLLIYLASNLESGVPDRFSGSGSGTDFTLTISSLQAEDVATYYCQHSRELRTFGQGTKLEIK

>  <OBSERVED VALUE>
1.81

$$$$

Next:
Exercise: Reported Relative IC50 (fold of chimeric PTA-2358), binder PTA-2358 VH2/VK3 IgG1 antibody (antibody, V domains shown) VH: EVQLVQSGAEVKKPGASVKLSCTASGFNIKDYYMHWVKQAPGQGLEWIGWIDPGNGDTECAPKFQGRATLTADTSINTAYLELSRLRSDDTAVYYCNAPYYSGSSHFDYWGQGTTVTVSS VL: DIVMTQSPDSLAVSLGERATINCRASKSVSASGYSFLHWYQQKPGQPPKLLIYLASNLESGVPDRFSGSGSGTDFTLTISSLQAEDVAVYYCQHSRELRTFGQGTKLEIK : ____
Key: > 3
